Source: patent US20240376185A1

# systemTested: tetanus neurotoxin (TeNT), authentic tetanus holotoxin (Clostridium tetani, UniProt P04958 2-1315)
# Sequence (P04958 2-457 limits assumed, chain 1 of 2): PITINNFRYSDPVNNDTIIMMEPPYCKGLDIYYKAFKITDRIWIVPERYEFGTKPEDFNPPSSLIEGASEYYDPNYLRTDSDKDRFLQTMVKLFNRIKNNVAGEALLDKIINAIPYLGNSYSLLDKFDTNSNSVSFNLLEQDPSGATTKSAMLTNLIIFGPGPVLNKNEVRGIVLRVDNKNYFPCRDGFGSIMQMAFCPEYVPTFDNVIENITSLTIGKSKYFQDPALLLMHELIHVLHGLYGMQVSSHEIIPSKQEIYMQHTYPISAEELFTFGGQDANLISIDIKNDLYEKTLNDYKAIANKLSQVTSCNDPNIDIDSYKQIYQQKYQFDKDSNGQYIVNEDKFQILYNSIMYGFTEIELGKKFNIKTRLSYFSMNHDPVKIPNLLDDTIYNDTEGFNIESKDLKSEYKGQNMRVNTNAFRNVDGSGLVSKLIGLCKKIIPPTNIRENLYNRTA
# Sequence (P04958 458-1315 limits assumed, chain 2 of 2): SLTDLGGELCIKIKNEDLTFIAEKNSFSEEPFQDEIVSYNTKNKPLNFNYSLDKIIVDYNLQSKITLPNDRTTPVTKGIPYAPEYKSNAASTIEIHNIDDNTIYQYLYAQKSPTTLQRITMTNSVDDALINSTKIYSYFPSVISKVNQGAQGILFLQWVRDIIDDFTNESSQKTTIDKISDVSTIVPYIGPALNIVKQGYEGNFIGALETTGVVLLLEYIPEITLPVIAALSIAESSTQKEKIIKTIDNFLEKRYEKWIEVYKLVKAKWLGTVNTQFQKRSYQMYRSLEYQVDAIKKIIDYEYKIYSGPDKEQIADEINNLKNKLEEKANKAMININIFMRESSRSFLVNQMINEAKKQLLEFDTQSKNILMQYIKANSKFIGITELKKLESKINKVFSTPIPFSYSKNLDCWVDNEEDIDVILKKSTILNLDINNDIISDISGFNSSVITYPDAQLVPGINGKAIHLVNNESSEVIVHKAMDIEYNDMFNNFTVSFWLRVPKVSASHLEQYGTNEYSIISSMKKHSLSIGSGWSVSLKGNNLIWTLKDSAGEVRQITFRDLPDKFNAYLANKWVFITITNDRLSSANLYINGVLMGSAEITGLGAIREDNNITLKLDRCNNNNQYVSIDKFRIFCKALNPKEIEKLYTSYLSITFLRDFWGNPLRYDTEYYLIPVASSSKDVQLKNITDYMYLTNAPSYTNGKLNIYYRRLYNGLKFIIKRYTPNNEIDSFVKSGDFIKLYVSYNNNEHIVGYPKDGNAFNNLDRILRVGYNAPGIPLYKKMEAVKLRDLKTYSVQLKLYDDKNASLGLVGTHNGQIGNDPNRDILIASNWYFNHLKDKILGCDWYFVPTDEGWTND
# protocolSummary: cell-based or functional assay
measuredProperty: SDA concentration providing full protection (nM)
Just the number in nM, nothing appended.

SVT15-3FW4M-GS2-SVG13M4-H6 (bispecific antibody) QVQLQESGGGLVQTGGSLRLSCRASGRAFANYHFGWFRQAPGKDREFVASISWKGGSTYYANFALGRFTSSVDRAESSVYLQMSGLTPEDTATYYCAAHDGGDWNYHTGMDYWGQGTQVTVSSGGGGSGGGSEVQLVESGGGLVQPGGSLRLSCEASGFTFDDYGMSWVRQAPGKGLEWVSSLTPNGGSTYYADSVKGRFTISRDNAKNTLYLQMNSLKPEDTALYYCAKNSYYGAMDYWGQGTQVTVSSHHHHHH    500

-- ask Find the recorded SDA concentration providing full protection belonging to SVT06-GS2-SVG13M4-H6 (bispecific antibody) QVQLQESGGGSVQAGGSLRLSCTASELSYDDYTIAWFRRAAGEGRVEDGEGVASITKSYDRAYDNKINYGHSVKGRFTISRDNAKNTVYLQMTDLLPSDTAVYYCALDITPPGGVGASLTEGFLFDYWGQGTQVTVSSGGGGSGGGSEVQLVESGGGLVQPGGSLRLSCEASGFTFDDYGMSWVRQAPGKGLEWVSSLTPNGGSTYYADSVKGRFTISRDNAKNTLYLQMNSLKPEDTALYYCAKNSYYGAMDYWGQGTQVTVSSHHHHHH and report it.
-- reply 1000
